These entries and their values trace back to patent US11203600B2.

Target: GST-hRIPK1 (8-327) (Homo sapiens (Human), UniProt Q13546)
Sequence (Q13546 8-327): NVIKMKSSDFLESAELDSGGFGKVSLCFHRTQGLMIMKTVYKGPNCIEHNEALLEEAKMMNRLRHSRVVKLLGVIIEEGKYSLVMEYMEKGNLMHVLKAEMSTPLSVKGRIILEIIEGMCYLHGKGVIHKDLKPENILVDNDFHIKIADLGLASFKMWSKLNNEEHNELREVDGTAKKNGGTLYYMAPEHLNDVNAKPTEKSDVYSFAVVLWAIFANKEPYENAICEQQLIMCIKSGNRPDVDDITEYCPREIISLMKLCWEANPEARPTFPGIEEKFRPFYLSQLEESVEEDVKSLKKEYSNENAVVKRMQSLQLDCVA
Test: Fluorescent Polarization Binding (FP Binding) assay, RIPK1
Details: GST-hRIPK1 (8-327), mean of at least two independent experiments
Procedure: […] After addition of 5 μL of fluorescentlabeled ligand at twice the final concentrations in assay buffer, the plate was incubated at RT for […]. At the end, the binding was measured as FP value with the Envision (PerkinElmer) plate reader using filter for an excitation λ=531 nm FP and an emission λ=595 nm FP (S & P-pol). […] Test compound inhibition was expressed as percent inhibition of internal assay controls. […]
pIC50: −log10 of the molar value.

molecule: CCC(C)(C)C(=O)N1CCOc2c(F)cncc2C1
pIC50: 6.00 to 7.00

molecule: CC1(C(=O)N2CCOc3c(C#N)cncc3C2)CCN(c2ncc(F)cn2)CC1F (single isomer, unassigned) [Example 299]
pIC50: 7.00 to 10.00

molecule: O=C(C1CCN(c2nccc3ncnn23)CC1(F)F)N1CCOc2c(F)cncc2C1 (stereo not shown)
pIC50: 6.00 to 7.00

molecule: O=C(C1CCN(c2ncc(F)cn2)C[C@@H]1F)N1CCOc2c(F)cncc2C1 (stereo partly shown)
pIC50: 7.00 to 10.00

###

Each entry below lists one item and its recorded IC50 value.
target: GST-hRIPK1 (8-327) (Homo sapiens (Human)); assay: Fluorescent Polarization Binding (FP Binding) assay, RIPK1; details: 10 nM GST-hRIPK1 (8-327), 5 nM fluorescent-labeled ligand, RT, 30 min, mean of at least two independent experiments
measured-property: IC50

compound: CC1(C(=O)N2CCOc3c(C#N)cncc3C2)CCOCC1 [Example 41]
reading: 100 to 1000 nM
--
compound: N#Cc1cncc2c1OCCN(C(=O)C1(Cl)CCN(c3ncc(F)cn3)CC1)C2 [Example 177]
reading: 0.1 to 100 nM
--
compound: CC1(C(=O)N2CCOc3c(C#N)cncc3C2)CCN(c2ncc(F)cn2)CC1(F)F (stereo not shown) [Example 96]
reading: 0.1 to 100 nM
--
compound: N#Cc1cncc2c1OCCN(C(=O)[C@]13CCN(c4ncc(F)cn4)C[C@H]1C3)C2 (relative stereo) [Example 89]
reading: 0.1 to 100 nM

###

target: GST-hRIPK1 (8-327) (Homo sapiens (Human), UniProt Q13546); assay: Fluorescent Polarization Binding (FP Binding) assay, RIPK1; conditions: GST-hRIPK1 (8-327), mean of at least two independent experiments

compound: O=C(C1CCN(c2ncc(F)cn2)C[C@@H]1F)N1CCOc2ccncc2C1 (some centres unmarked)
IC50: 0.1 to 1 µM
//
compound: CC(F)C(C)(C)C(=O)N1CCOc2c(C#N)cncc2C1 (single isomer, unassigned) [Example 273]
IC50: 0.1 to 1 µM
//
compound: N#Cc1cncc2c1OCCN(C(=O)C1CCN(c3ccnc4ccnn34)CC1(F)F)C2 (centres unmarked)
IC50: 0.1 to 1 µM
//
compound: N#Cc1cncc2c1OCCN(C(=O)C1CCN(c3nccn4ncnc34)CC1F)C2 (single isomer, unassigned) [Example 301]
IC50: 0.1 to 1 µM
//
compound: N#Cc1cncc2c1OCCN(C(=O)C1CCN(c3nccc4ncnn34)C[C@@H]1F)C2 (some centres unmarked)
IC50: 0.1 to 1 µM
//
compound: COC1(C(=O)N2CCOc3ccncc3C2)CCN(c2ncc(F)cn2)CC1
IC50: 0.0001 to 0.1 µM
//
compound: CC(C(=O)N1CCOc2c(C#N)cncc2C1)(C(F)F)C1CC1 (single isomer, unassigned) [Example 259]
IC50: 0.1 to 1 µM
//
compound: CC(C)(C(=O)N1CCOc2c(C#N)cncc2C1)C1CC(n2ccnn2)C1 (centres unmarked)
IC50: > 1 µM
//
compound: CC1(C(=O)N2CCOc3c(C#N)cncc3C2)CCN(c2ncc(F)cn2)CC1(F)F (single isomer, unassigned) [Example 284]
IC50: 0.0001 to 0.1 µM
//
compound: N#Cc1cncc2c1OCCN(C(=O)C1(F)CCN(c3ccc4c(n3)CNC4)CC1)C2
IC50: > 1 µM
//
compound: COc1nc(N2CCC(OC)(C(=O)N3CCOc4c(C#N)cncc4C3)CC2)c(F)cc1F
IC50: 0.0001 to 0.1 µM
//
compound: CC(F)(F)C(C)(C(=O)N1CCOc2c(C#N)cncc2C1)C(F)F (centres unmarked)
IC50: 0.1 to 1 µM
//
compound: N#Cc1cncc2c1OCCN(C(=O)C1CCN(c3nccn4ncnc34)C[C@@H]1F)C2 (some centres unmarked)
IC50: 0.0001 to 0.1 µM
//
compound: O=C(C1CCN(c2ccnc3c(F)cnn23)C[C@@H]1F)N1CCOc2c(F)cncc2C1 (some centres unmarked)
IC50: 0.0001 to 0.1 µM
//
compound: CC(C)(C(=O)N1CCOc2c(C#N)cncc2C1)C1CC(n2nccn2)C1 (centres unmarked)
IC50: 0.1 to 1 µM
//
compound: COc1cc(C(F)(F)F)nc(N2CCC(F)(C(=O)N3CCOc4c(C#N)cncc4C3)CC2)n1
IC50: 0.1 to 1 µM
//
compound: O=C(C1=CCN(c2ncc(F)cn2)CC1)N1CCOc2c(F)cncc2C1
IC50: 0.1 to 1 µM

###

Each entry below lists one item and its recorded pIC50 value.
Target: GST-hRIPK1 (8-327) (Homo sapiens (Human), UniProt Q13546)
Test: Fluorescent Polarization Binding (FP Binding) assay, RIPK1
Conditions: 10 nM GST-hRIPK1 (8-327), 5 nM fluorescent-labeled ligand, RT, 30 min, mean of at least two independent experiments
Experimental: […] After addition of 5 μL of fluorescentlabeled ligand at twice the final concentrations in assay buffer, the plate was incubated at RT for […]. At the end, the binding was measured as FP value with the Envision (PerkinElmer) plate reader using filter for an excitation λ=531 nm FP and an emission λ=595 nm FP (S & P-pol). […] Test compound inhibition was expressed as percent inhibition of internal assay controls. […]
pIC50: −log10 of the molar value.
measured-property: pIC50

compound: N#Cc1cncc2c1OCCN(C(=O)C1(F)CCN(c3ccncn3)CC1)C2 [Example 88]
measured-property: pIC50
reading: 6.00 to 7.00

compound: CCC(C)(CC)C(=O)N1CCOc2c(C#N)cncc2C1 [Example 151]
measured-property: pIC50
reading: 7.00 to 10.00

compound: N#Cc1cncc2c1OCCN(C(=O)C(F)(F)C(F)(F)C(F)(F)F)C2 [Example 143]
measured-property: pIC50
reading: < 6.00

compound: N#Cc1cncc2c1OCCN(C(=O)C1(C(F)F)CCN(c3ncc(F)cn3)CC1)C2 [Example 94]
measured-property: pIC50
reading: 6.00 to 7.00

compound: N#Cc1cncc2c1OCCN(C(=O)C13CC(C1)C3)C2 [Example 44]
measured-property: pIC50
reading: < 6.00

compound: CC(C)(C(=O)N1CCOc2ccc(Cl)cc2C1)C(F)F [Example 10]
measured-property: pIC50
reading: 6.00 to 7.00

compound: CC(C)(CC#N)C(=O)N1CCOc2c(F)cncc2C1 [Example 70]
measured-property: pIC50
reading: 6.00 to 7.00

compound: COC1(C(=O)N2CCOc3c(F)cncc3C2)CCN(c2ncc(F)cn2)CC1 [Example 121]
measured-property: pIC50
reading: 7.00 to 10.00

compound: CC(C)(C(=O)N1CCOc2ncccc2C1)C(F)F [Example 34]
measured-property: pIC50
reading: < 6.00

###

target: GST-hRIPK1 (8-327) (Homo sapiens (Human)); assay: Fluorescent Polarization Binding (FP Binding) assay, RIPK1; conditions: 10 nM GST-hRIPK1 (8-327), 5 nM fluorescent-labeled ligand, RT, 30 min, mean of at least two independent experiments
pIC50: −log10 of the molar value.
measured-property: pIC50

smiles-data: COc1ccc2c(c1)OCCN(C(=O)C(C)(C)C(F)F)C2
reading: 6.00 to 7.00
--
smiles-data: CC(C)(OC(F)(F)F)C(=O)N1CCOc2c(C#N)cncc2C1
reading: 7.00 to 10.00
--
smiles-data: O=C(C(C1CC1)C1CC1)N1CCOc2c(F)cccc2C1
reading: < 6.00
--
smiles-data: CCC(C)(C)C(=O)N1CCOc2ccccc2C1
reading: 7.00 to 10.00
--
smiles-data: CCC1(C(=O)N2CCOc3c(C#N)cncc3C2)CC1
reading: 6.00 to 7.00
--
smiles-data: CC(C)(C(=O)N1CCOc2c(C#N)cc(F)cc2C1)C(F)F
reading: 7.00 to 10.00
--
smiles-data: Cc1cncc2c1OCCN(C(=O)C(C)(C)C(F)F)C2
reading: < 6.00
--
smiles-data: CCC(C)(C)C(=O)N1CCOc2ccc(F)cc2C1
reading: 7.00 to 10.00
--
smiles-data: CC(C)(CC(F)F)C(=O)N1CCOc2c(F)cccc2C1
reading: 7.00 to 10.00
--
smiles-data: Cc1cc(C(F)(F)F)nc(N2CCC(F)(C(=O)N3CCOc4c(C#N)cncc4C3)CC2)n1
reading: 6.00 to 7.00
--
smiles-data: N#Cc1cncc2c1OCCN(C(=O)C1(F)CCN(c3ccnc4ccnn34)CC1)C2
reading: 7.00 to 10.00
--
smiles-data: CC(C)(C)C(=O)N1CCCc2ccccc2C1
reading: 6.00 to 7.00
--
smiles-data: N#Cc1cncc2c1OCCN(C(=O)C1(C3CC3)CC1)C2
reading: 6.00 to 7.00
--
smiles-data: N#Cc1cncc2c1OCCN(C(=O)C1(F)CCN(c3ncc(F)c(NC4CC4)n3)CC1)C2
reading: 7.00 to 10.00
--
smiles-data: COc1cnc(N2CCC(F)(C(=O)N3CCOc4c(C#N)cncc4C3)CC2)nc1
reading: 6.00 to 7.00
--
smiles-data: COc1ccnc(N2CCC(C(=O)N3CCOc4c(C#N)cncc4C3)CC2)n1
reading: 7.00 to 10.00
--
smiles-data: O=C(C1CCN(c2ncc(F)cn2)CC1)N1CCOc2c(F)cncc2C1
reading: 7.00 to 10.00
--
smiles-data: N#Cc1cncc2c1OCCN(C(=O)C1(F)CCN(c3ncccn3)CC1)C2
reading: 7.00 to 10.00
--
smiles-data: N#Cc1cncc2c1OCCN(C(=O)C1(F)CCN(c3ncc4ccccc4n3)CC1)C2
reading: 7.00 to 10.00
